System: FLT3 (human), P36888 [D835Y]
experimentNotes: KINOMEscan competition binding
condition: compound 10.0 µM
Sorting guide: entries reporting kinase still bound, per cent of control beneath 30% go in the class 1 pile, the rest go in the class 0 pile.

>  <molecule>
NC(=O)Nc1cc(-c2cccc(F)c2)sc1C(=O)N[C@@H]1CCCNC1

>  <system>
FLT3 (human), P36888 [D835Y]

>  <category>
class 1

$$$$
>  <molecule>
COc1cc(C(=O)NC2CCN(C)CC2)ccc1Nc1ncc2c(n1)N(C1CCCC1)C(C)CC(=O)N2C (centres undefined)

>  <system>
FLT3 (human), P36888 [D835Y]

>  <category>
class 0

$$$$
>  <molecule>
C=CC(=O)Nc1cc(-n2c(=O)ccc3cnc4ccc(-c5cn[nH]c5)cc4c32)ccc1C

>  <system>
FLT3 (human), P36888 [D835Y]

>  <category>
class 1

$$$$
>  <molecule>
CCC(=O)N1CCN(c2ccc(-n3c(=O)ccc4cnc5ccc(-c6cnc7ccccc7c6)cc5c43)cc2C(F)(F)F)CC1

>  <system>
FLT3 (human), P36888 [D835Y]

>  <category>
class 1

$$$$
>  <molecule>
CCCS(=O)(=O)Nc1ccc(F)c(C(=O)c2c[nH]c3ncc(Cl)cc23)c1F

>  <system>
FLT3 (human), P36888 [D835Y]

>  <category>
class 0

$$$$
>  <molecule>
CCN(CC)CCCCNc1ncc2cc(-c3cc(OC)cc(OC)c3)c(NC(=O)NC(C)(C)C)nc2n1

>  <system>
FLT3 (human), P36888 [D835Y]

>  <category>
class 0

$$$$
>  <molecule>
CC[C@@H]1C(=O)N(C)c2cnc(Nc3ccc(C(=O)NC4CCN(C)CC4)cc3OC)nc2N1C1CCCC1

>  <system>
FLT3 (human), P36888 [D835Y]

>  <category>
class 0

$$$$
>  <molecule>
Cn1c(=O)n(-c2ccc(C(C)(C)C#N)cc2)c2c3cc(-c4cnc5ccccc5c4)ccc3ncc21

>  <system>
FLT3 (human), P36888 [D835Y]

>  <category>
class 1

$$$$
>  <molecule>
CN(C)C/C=C/C(=O)Nc1cccc(Nc2ncc3c(n2)N(C)c2ccccc2C(=O)N3C)c1

>  <system>
FLT3 (human), P36888 [D835Y]

>  <category>
class 1

$$$$

---

system: CHUK (human)
experimentNotes: KINOMEscan competition binding
condition: compound 10.0 µM
observable: kinase still bound, per cent of control (%)

>  <compound>
C=CC(=O)Nc1ccc(C(=O)c2sc(Nc3ccc(N4CCN(C)CC4)cc3OC)nc2N)cc1

>  <valueReported>
59

$$$$
>  <compound>
CCN1CCN(Cc2ccc(NC(=O)c3ccc(C)c(/C=C/c4cnc5[nH]ccc5c4OC)c3)cc2C(F)(F)F)CC1

>  <valueReported>
0

$$$$
>  <compound>
CCCS(=O)(=O)Nc1ccc(F)c(C(=O)c2c[nH]c3ncc(Cl)cc23)c1F

>  <valueReported>
89

$$$$
>  <compound>
COc1cc2c(Nc3ccc(NC(=O)c4ccccc4)cc3)ncnc2cc1OCCCN1CCOCC1

>  <valueReported>
100

$$$$
>  <compound>
COc1cc(N2CCC(C(N)=O)CC2)ccc1Nc1nc(N)c(Cl)c(Nc2ccccc2S(=O)(=O)C(C)C)n1

>  <valueReported>
100

$$$$
>  <compound>
CCN(CCO)CCCOc1ccc2c(Nc3cc(CC(=O)Nc4cccc(F)c4)[nH]n3)ncnc2c1

>  <valueReported>
100

$$$$
>  <compound>
COc1cc2ncnc(Nc3cccc(Cl)c3)c2cc1OC

>  <valueReported>
72

$$$$
>  <compound>
COc1cc(C)c(Sc2cnc(NC(=O)c3ccc(CNC(C)C(C)C)cc3)s2)cc1C(=O)N1CCN(C(C)=O)CC1 (centres undefined)

>  <valueReported>
100

$$$$
>  <compound>
CC1=C(C(=O)Nc2cc3cn[nH]c3cc2F)C(c2ccc(C(F)(F)F)cc2)CC(=O)N1 (centres undefined)

>  <valueReported>
100

$$$$
